Each recorded value in this set is attributed to PubChem BioAssay (NCI).

System: U251 CNS
Outcome codes: class 1 = active, class 0 = inactive

{"columns": ["Compound", "Class Name"],
 "data": [
  ["O=C1c2cc(Br)ccc2-c2c1c1ccccc1c(=O)n2CCCCl", "class 0"],
  ["COc1cc(C2CC(c3ccc(C)cc3)=NN2C(C)=O)ccc1Oc1ccnc2cc(Cl)ccc12 (stereo not given)", "class 0"],
  ["O=C(CCCCCn1c2ccccc2c2c3c(c4c5ccccc5[nH]c4c21)C(=O)N(O)C3=O)N1CCOCC1", "class 0"],
  ["O=C(NCCc1ccccc1)C(c1csc2ccccc12)N(C(=O)CCl)c1ccc(-c2cnco2)cc1 (stereo not given)", "class 1"],
  ["O=C1/C(=C/c2ccc(F)cc2)CN(Cc2cn(CCNc3ccnc4cc(Cl)ccc34)nn2)C/C1=C\\c1ccc(F)cc1", "class 0"]
]}
